Test: Retention time in HPLC of reactive precursor (index of hydrophilicity)
Assay type: physicochemical
Details: BEH C18, 0.1% formic acid water/acetonitrile gradient, 40° C.
Method: As an index of hydrophilicity of the reactive precursor (Compound (III)), the retention time (RT) in HPLC analysis was measured, and compared.
Numbered stars: 1 amine (or outer) side, 2 acyl side, 3 side chain; on linkers, the order of the positions; unused ones are H or OH. Square brackets hold non-standard residues; d marks the D form. Peptide text beside a SMILES is read from it. * marks the point of attachment. Dolaproine = CO[C@@H]([C@@H]1CCCN1)[C@@H](C)C(=O)O; Hexanoyl(6-maleimido) = O=C1C=CC(=O)N1CCCCCC(=O)*; Dil = CC[C@H](C)[C@H](NC)[C@@H](CC(=O)O)OC; PABC = O=C(OCc1ccc(N[*:1])cc1)[*:2]; X1 = C[C@@H](N*)[C@@H](O)c1ccccc1; Cit = NC(=O)NCCC[C@H](N)C(=O)O; NMeV = CN[C@H](C(=O)O)C(C)C
observable: Retention time in HPLC measurement (min)
Report the figure in min without appending any unit label.

Req: Given the compound CC[C@H](C)[C@@H]([C@@H](CC(=O)N1CCC[C@H]1[C@H](OC)[C@@H](C)C(=O)N[C@H](C)[C@@H](O)c1ccccc1)OC)N(C)C(=O)[C@@H](NC(=O)[C@H](C(C)C)N(C)C(=O)OCc1ccc(NC(=O)[C@H](CCCNC(N)=O)NC(=O)[C@@H](NC(=O)CCCCCN2C(=O)C=CC2=O)C(C)C)cc1)C(C)C [MC-Val-Cit-PAB-MMAE, reference compound] ({Hexanoyl(6-maleimido)}-V[Cit][PABC][NMeV]V[Dil][Dolaproine]-X1) , what is its reported Retention time in HPLC measurement?
Resp: 1.24

* * *

Recorded Retention time in HPLC measurement by entry
Assay: Retention time in HPLC of reactive precursor (index of hydrophilicity)
Type: physicochemical
Conditions: BEH C18, 0.1% formic acid water/acetonitrile gradient, 40° C.
Value and unit, in that order.

Req: # Retention time in HPLC measurement lookup, item C=C1C[C@@H]2CC[C@@]34C[C@H]5O[C@H]6[C@@H](O3)[C@H]3O[C@H](CC[C@@H]3O[C@H]6[C@H]5O4)CC(=O)C[C@@H]3[C@@H](OC)[C@@H](C[C@@H](CCNC(=O)OCc4ccc(NC(=O)[C@H](CCCNC(N)=O)NC(=O)[C@@H](NC(=O)[C@H](CC(=O)N[C@H]5CCOC5=O)NC(=O)CCOCCOCCOCCOCCNC(=O)[C@H](CNC(=O)CCP(=O)(O)O)N5C(=O)C=CC5=O)C(C)C)cc4)OP(=O)(O)O)O[C@H]3C[C@H]3O[C@@H](CC[C@@H]1O2)C[C@@H](C)C3=C [Reference Example 26]
Resp: 0.91 min

Req: How about C=C1C[C@@H]2CC[C@@]34C[C@H]5O[C@H]6[C@@H](O3)[C@H]3O[C@H](CC[C@@H]3O[C@H]6[C@H]5O4)CC(=O)C[C@@H]3[C@@H](OC)[C@@H](C[C@H](O)CNC(=O)OCc4ccc(NC(=O)[C@H](CCCNC(N)=O)NC(=O)[C@@H](NC(=O)CCOCCOCCN5C(=O)C=CC5=O)C(C)C)cc4)O[C@H]3C[C@H]3O[C@@H](CC[C@@H]1O2)C[C@@H](C)C3=C [Mal-PEG2-Val-Cit-PAB-Eribulin, reference compound] ?
Resp: 1.19 min

* * *

Test: Retention time in HPLC of reactive precursor (index of hydrophilicity)
Format: physicochemical
Settings: BEH C18, 0.1% formic acid water/acetonitrile gradient, 40° C.
Numbered stars: 1 amine (or outer) side, 2 acyl side, 3 side chain; on linkers, the order of the positions; unused ones are H or OH. Square brackets hold non-standard residues; d marks the D form. Peptide text beside a SMILES is read from it. * marks the point of attachment. Dolaproine = CO[C@@H]([C@@H]1CCCN1)[C@@H](C)C(=O)O; Propanoyl(3-maleimido) = O=C1C=CC(=O)N1CCC(=O)*; Dil = CC[C@H](C)[C@H](NC)[C@@H](CC(=O)O)OC; X3 = C[C@@H](N*)[C@@H](OP(=O)(O)O)c1ccccc1; PABC = O=C(OCc1ccc(N[*:1])cc1)[*:2]; hSer(lactone) = O=C1OCC[C@@H]1N*; Cit = NC(=O)NCCC[C@H](N)C(=O)O; PEG4 = NCCOCCOCCOCCOCCC(=O)O; NMeV = CN[C@H](C(=O)O)C(C)C
Below: a set of entries, each annotated with reported Retention time in HPLC measurement.
Answer format: numeric, min implied, no suffix.

compound	unit.label	Retention time in HPLC measurement
CC[C@H](C)[C@@H]([C@@H](CC(=O)N1CCC[C@H]1[C@H](OC)[C@@H](C)C(=O)N[C@H](C)[C@@H](OP(=O)(O)O)c1ccccc1)OC)N(C)C(=O)[C@@H](NC(=O)[C@H](C(C)C)N(C)C(=O)OCc1ccc(NC(=O)[C@H](CCCNC(N)=O)NC(=O)[C@@H](NC(=O)[C@H](CC(=O)N[C@H]2CCOC2=O)NC(=O)CCOCCOCCOCCOCCNC(=O)CCN2C(=O)C=CC2=O)C(C)C)cc1)C(C)C [Reference Example 2] ({Propanoyl(3-maleimido)-PEG4}-D(hSer(lactone))V[Cit][PABC][NMeV]V[Dil][Dolaproine]-X3)	min	0.96

Proceeding to the next compound to report its Retention time in HPLC measurement.
Req: Given the compound CC[C@H](C)[C@@H]([C@@H](CC(=O)N1CCC[C@H]1[C@H](OC)[C@@H](C)C(=O)N[C@H](C)[C@@H](OP(=O)(O)OCc1ccc(NC(=O)[C@H](CCCNC(N)=O)NC(=O)[C@@H](NC(=O)[C@H](CC(=O)N[C@H]2CCOC2=O)NC(=O)CCOCCOCCOCCOCCNC(=O)[C@H](CNC(=O)CCP(=O)(O)O)N2C(=O)C=CC2=O)C(C)C)cc1)c1ccccc1)OC)N(C)C(=O)[C@@H](NC(=O)[C@H](C(C)C)N(C)C)C(C)C [Reference Example 3] , what is its reported Retention time in HPLC measurement?
Resp: 0.70
